- target-under-test: RPS6KB1 (human) (UniProt P23443)
- Sequence (P23443 whole entry, looked up): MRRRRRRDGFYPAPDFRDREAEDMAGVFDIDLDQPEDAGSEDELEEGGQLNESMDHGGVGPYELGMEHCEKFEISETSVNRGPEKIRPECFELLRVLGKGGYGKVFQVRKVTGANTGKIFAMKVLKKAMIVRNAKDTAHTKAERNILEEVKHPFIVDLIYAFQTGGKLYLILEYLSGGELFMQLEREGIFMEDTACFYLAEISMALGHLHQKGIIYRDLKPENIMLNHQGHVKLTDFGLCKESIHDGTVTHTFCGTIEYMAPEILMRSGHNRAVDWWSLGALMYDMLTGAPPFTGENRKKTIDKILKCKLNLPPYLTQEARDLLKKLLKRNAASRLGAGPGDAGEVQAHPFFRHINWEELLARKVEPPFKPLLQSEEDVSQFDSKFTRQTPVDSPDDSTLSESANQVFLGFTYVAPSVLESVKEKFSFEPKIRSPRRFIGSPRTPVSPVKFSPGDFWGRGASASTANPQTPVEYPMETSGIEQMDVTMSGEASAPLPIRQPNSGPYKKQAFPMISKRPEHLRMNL
- protocol-description: radiometric filter-binding kinase assay, Kinase HotSpot
- applied-conditions: compound 0.5 µM; ATP 10 µM
Cut-off 90% on residual activity, inclusive. At or above means Satisfied; below means Not satisfied.

[ask] Can "O=C1NC(=O)C(c2cn(CCCn3ccnc3)c3ccccc23)=C1Nc1ccccc1" be said to have residual activity at or above 90%?
[reply] Not satisfied

[ask] Can "N#C/C(=C(/N)Sc1ccc(N)cc1)c1ccccc1C(F)(F)F" be said to have residual activity at or above 90%?
[reply] Satisfied

[ask] Can "CC(C)N(CCC(=O)c1ccc2ccccc2c1)Cc1ccccc1" be said to have residual activity at or above 90%?
[reply] Satisfied

[ask] Can "CC(=O)c1ccc(N2CCOCC2)cc1O" be said to have residual activity at or above 90%?
[reply] Satisfied

[ask] Can "O=C1NC(=O)c2c1c1c3ccccc3n3c1c1c2c2ccccc2n1C1CCC3O1" be said to have residual activity at or above 90%?
[reply] Not satisfied

---
[ask] Can "CCN(CC)CCNC(=O)c1c(C)[nH]c(/C=C2\C(=O)Nc3ccc(Cl)cc32)c1C" be said to have residual activity at or above 90%?
[reply] Not satisfied

[ask] Can "O=C1NC(=O)/C(=C/c2ccc3c(c2)OC(F)(F)O3)S1" be said to have residual activity at or above 90%?
[reply] Not satisfied

[ask] Can "c1ccc(-c2n[nH]cc2-c2ccnc3ccccc23)nc1" be said to have residual activity at or above 90%?
[reply] Satisfied

[ask] Can "Cc1[nH]c(/C=C2\C(=O)Nc3ccc(S(=O)(=O)N(C)c4cccc(Cl)c4)cc32)c(C)c1C(=O)N1CCN(C)CC1" be said to have residual activity at or above 90%?
[reply] Not satisfied
